Attribution: PubChem BioAssay (NCATS)

# System: MKL-1
# Test: qHTS assay to identify novel small-molecules to repurpose for Merkel cell carcinoma treatment (AID 1296009); further: nearly all actives have a fitted effect of over 60% in size
# Assay Setup: MCC and control cell lines, CellTiter-Glo viability, 72 h; series mostly up to 46 µM
Results filed as inconclusive are left out. Activity calls are given as the source filed them. The call rests on the fitted dose curve; in most records, active means well fitted inhibition curve with a large enough effect; inconclusive means small, poorly fitted or top-dose-only effect; inactive means flat fitted curve, though single readings scatter.
Respond with a class label; see active, inactive

Q: Any idea what this test logged for `Cc1cccc2c1CC[C@H](CN1CCC(c3c(Cl)cccc3Cl)CC1)C[C@@H]2O` ?
Ans: inactive

Q: Each compound tested received a call. Report the one for `N#Cc1c(N(CC(=O)O)CC(=O)O)sc(C(=O)O)c1CC(=O)O` .
Ans: inactive

Q: What is the recorded call for this compound in the test? `CN1N=C(N)c2cn([C@@H]3O[C@H](COP(=O)(O)O)[C@@H](O)[C@@H]3O)c3ncnc1c23`
Ans: active

Q: Record lookup: outcome of this test for `Cc1ccc(NC(=O)c2ccc(CN3CCN(C)CC3)cc2)cc1Nc1nc(-c2cccnc2)cs1` ?
Ans: inactive

Q: What did the test return for `FC(F)(F)c1ccc(C=Cc2nc(COc3ccc(CCCCn4ccnn4)cc3)co2)cc1` ?
Ans: active

Q: Assay outcome for `COc1ccc(-c2ccc3ncc4c(c3c2)n(-c2ccc(N3CCNCC3)c(C(F)(F)F)c2)c(=O)n4C)cn1` : what was it?
Ans: active

Q: Which outcome did this test record for the compound `CN(CC=CC#CC(C)(C)C)Cc1cccc2ccccc12` ?
Ans: inactive

Q: How was `CNC(=O)[C@H](CC1=CN=C2C=CCC=C12)NC(=O)[C@@H](CC(=O)NO)CC(C)C` classified in this test?
Ans: active

Q: Dear all, I need the recorded test outcome for `C=C1c2cccc(O)c2C(O)=C2C(=O)[C@@]3(O)C(O)=C(C(N)=O)C(=O)[C@@H](N(C)C)[C@@H]3[C@@H](O)[C@H]12` , thank you.
Ans: inactive

Q: Would you mind telling me which call this test gave `CC[C@H](C)n1cc(C)c2c(C(=O)NCc3c(C)cc(C)[nH]c3=O)cc(-c3ccc(N4CCNCC4)nc3)cc21` ?
Ans: inactive

Q: Test call for this compound, please: `NC1(C(=O)N[C@@H](CCO)c2ccc(Cl)cc2)CCN(c2ncnc3[nH]ccc23)CC1`
Ans: inactive

Q: Dear colleague, could you share the recorded outcome for `CO[C@H]1O[C@@H]2O[C@@]3(C)CC[C@@H]4[C@@H](C)CC[C@@H]([C@H]1C)[C@@]24OO3` when you have a moment?
Ans: inactive

Q: Called result for `CSc1cccc(Nc2ncc3cc(-c4c(Cl)cccc4Cl)c(=O)n(C)c3n2)c1`
Ans: inactive

Q: Could you kindly confirm the outcome this assay logged for `CCN1C[C@H](C)n2c(c(O)c3c(=O)n(Cc4ccc(F)c(Cl)c4)nc(C(=O)NC)c32)C1=O` ?
Ans: inactive

Q: Which result was noted for this compound in the test: `O=C1NC(=O)C(c2cnc3ccccn23)=C1c1cn2c3c(cccc13)CN(C(=O)N1CCOCC1)CC2`
Ans: inactive

Q: I'd appreciate the recorded outcome for `C#CCN(C)CC1=Cc2ccccc2Oc2ccccc21` from this test.
Ans: inactive

Q: Tell me the recorded outcome of this test for `Cc1ccc(S(=O)(=O)Nc2nc3ccccc3nc2Nc2ccc3nsnc3c2)cc1` .
Ans: active

Q: # outcome recorded in this test, key = CN1CC(=O)N2C(Cc3c([nH]c4ccccc34)[C@H]2c2ccc3c(c2)OCO3)C1=O (stereo partly drawn)
Ans: inactive

Q: Any idea what this test logged for `O=C(O)Cc1cccc(OCCCN(Cc2cccc(C(F)(F)F)c2Cl)CC(c2ccccc2)c2ccccc2)c1` ?
Ans: inactive

Q: How was `CC(=O)O[C@]1(C(C)=O)CC[C@H]2[C@@H]3C=C(Cl)C4=CC(=O)[C@@H]5C[C@H]5[C@]4(C)[C@@H]3CC[C@@]21C` classified in this test?
Ans: inactive

Q: How was `C[C@H](c1ccc(F)cc1CCCC(=O)O)N(c1cc(F)ccc1F)S(=O)(=O)c1ccc(Cl)cc1` classified in this test?
Ans: inactive

Q: # lookup: test call for `COc1nccc(-c2c(-c3ccc(F)cc3)ncn2C2CCNCC2)n1`
Ans: inactive

Q: Field: outcome | Entry: `CCOc1ccccc1N=Nc1c(C)[nH]n(-c2nc(-c3ccccc3)cs2)c1=O`
Ans: inactive

Q: Outcome? O=C(O)C1=NC(C(=O)O)CC(C=CN2c3cc(O)c(OC4OC(CO)C(O)C(O)C4O)cc3CC2C(=O)O)=C1 (stereo not drawn)
Ans: inactive

Q: // outcome(item) with item = Cc1cc2nc3c(=O)[nH]c(=O)nc-3n(CC(O)C(O)C(O)CO)c2cc1C (stereo not drawn)
Ans: inactive

Q: Call for entry COC1CCC(C(=O)c2ccc3nc4c(cc3c2)CCCO4)CC1 (stereo not drawn) :
Ans: inactive

Q: Short answer needed: outcome of this test for `COc1ccc(-c2cc3nccn3c(Nc3ncccc3C(N)=O)n2)cc1OC` ?
Ans: inactive

Q: Field: outcome | Entry: `COc1c(C)c2c(c(O)c1CC=C(C)CCC(=O)O)C(=O)OC2`
Ans: active

Q: Query: recorded result category for `Cc1ccc(NC(=O)c2cccc(N(C)C)c2)cc1NC(=O)c1ccc(O)cc1` in this test
Ans: active

Q: Just curious, what result did `O=C1Nc2ccc(I)cc2C1=Cc1cc(Br)c(O)c(Br)c1` get here?
Ans: inactive

Q: Please indicate how the test categorized `O=C(CC12CC3CC(CC(C3)C1)C2)Nc1cccc2nc(NCCNCCO)ccc12` .
Ans: inactive

Q: Just curious, what result did `NC(=O)c1nnn(Cc2cc(Cl)c(C(=O)c3ccc(Cl)cc3)c(Cl)c2)c1N` get here?
Ans: inactive

Q: Assay outcome for `COc1ccc2ccc(=O)oc2c1CC=C(C)C` : what was it?
Ans: active

Q: Hello, I am checking results. What call was entered for `CN(C)CCOc1ccc(C(=C(CCCl)c2ccccc2)c2ccccc2)cc1` ?
Ans: inactive

Q: Hello, I am checking results. What call was entered for `O=C(Nc1cccc(C(F)(F)F)c1)Nc1cc(S(=O)(=O)NC2CC2)ccc1-c1ccsc1` ?
Ans: inactive

Q: Per the records of this test, what outcome belongs to `CNc1nc(-c2ccc3c(N)n[nH]c3c2)cc(N2C[C@@H](C(=O)NC3CCCCC3)CC[C@@H]2C)n1` ?
Ans: inactive

Q: What did this assay record as the result for `CCC(=O)NCC[C@@H]1CCc2ccc3c(c21)CCO3` ?
Ans: inactive

Q: Please let me know the test result on file for CCCC1OC2C[C@@H]3[C@H]4CCC5=CC(=O)C=C[C@]5(C)[C@H]4C(O)C[C@]3(C)[C@]2(C(=O)CO)O1 (stereo partly drawn) .
Ans: inactive
